- experimental_system: RNA demethylase ALKBH5 (Homo sapiens, UniProt Q6P6C2)
- Sequence (Q6P6C2 whole entry): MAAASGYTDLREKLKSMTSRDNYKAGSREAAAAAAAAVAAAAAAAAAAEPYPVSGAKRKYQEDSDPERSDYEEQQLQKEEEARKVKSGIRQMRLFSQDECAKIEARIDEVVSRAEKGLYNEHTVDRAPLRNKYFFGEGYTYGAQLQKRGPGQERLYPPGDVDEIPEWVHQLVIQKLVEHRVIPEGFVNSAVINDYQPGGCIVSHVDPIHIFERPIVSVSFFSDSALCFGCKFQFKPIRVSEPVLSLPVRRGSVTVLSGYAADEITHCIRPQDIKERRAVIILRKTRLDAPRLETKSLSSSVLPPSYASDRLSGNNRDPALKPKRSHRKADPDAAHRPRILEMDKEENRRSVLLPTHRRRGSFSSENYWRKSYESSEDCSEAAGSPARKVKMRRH
pIC50: −log10 of the molar value.
measured_attribute: pIC50

[Q] Please state recorded pIC50 (tested on RNA demethylase ALKBH5 (Homo sapiens, UniProt Q6P6C2)) of Cn1ccc(-c2cc(C(=O)OCC(F)(F)F)ccn2)n1
[A] < 4.00

---

- experimental_system: Bifunctional arginine demethylase and lysyl-hydroxylase JMJD6 (Homo sapiens, UniProt Q6NYC1)
- experiment_description: Inhibition of JMJD6 (unknown origin) by Succinate-Glo assay
Parameter IC50: see the listing below.
Answer with a number only, understood to be in µM.

Reference set, count: 5
1. Cn1ccc(-c2cc(C(=O)OCC(F)(F)F)ccn2)n1 = 0.681
2. Cn1ccc(-c2cc(-c3cnn[nH]3)ccn2)n1 = 12.9
3. Cn1ccc(-c2cc(C(=O)OCC3CCC3)ccn2)n1 = 2.53
4. Cn1ccc(-c2cc(C(=O)OCC3CC3)ccn2)n1 = 3.8
5. CCOC(=O)c1ccnc(-c2nn(C)cc2-c2ccccc2)c1 = 15.2

[Q] Item under review: CCOC(=O)c1cc(-c2ccn(C)n2)ncc1F . Reported IC50?
[A] 23.1

[Q] Item under review: Cn1ccc(-c2cc(C(=O)OCC(F)F)ccn2)n1 . Reported IC50?
[A] 1.12

[Q] Item under review: CCOC(=O)c1ccnc(-c2nn(C)cc2-c2cccc(N3CCOCC3)c2)c1 . Reported IC50?
[A] 20.4

[Q] Item under review: Cn1ccc(-c2cc(C(=O)OC3CCCC3)ccn2)n1 . Reported IC50?
[A] 43.5

[Q] Item under review: CC(C)COC(=O)c1ccnc(-c2ccn(C)n2)c1 . Reported IC50?
[A] 11.8

[Q] Item under review: Cn1ccc(-c2cc(C(=O)OCCF)ccn2)n1 . Reported IC50?
[A] 1.45

---

- experimental_system: Bifunctional peptidase and (3S)-lysyl hydroxylase JMJD7 (Homo sapiens)
- Sequence (P0C870 whole entry): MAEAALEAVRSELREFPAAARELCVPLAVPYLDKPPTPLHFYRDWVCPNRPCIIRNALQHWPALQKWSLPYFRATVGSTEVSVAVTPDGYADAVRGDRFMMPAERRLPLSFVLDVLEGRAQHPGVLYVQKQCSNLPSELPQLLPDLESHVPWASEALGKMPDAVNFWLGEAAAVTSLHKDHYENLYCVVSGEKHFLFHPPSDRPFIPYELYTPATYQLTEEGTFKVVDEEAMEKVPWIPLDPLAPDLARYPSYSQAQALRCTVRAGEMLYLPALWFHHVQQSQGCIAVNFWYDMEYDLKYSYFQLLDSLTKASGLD
- experiment_description: Inhibition of JMJD7 (unknown origin) by Succinate-Glo assay
measured_attribute: IC50

[Q] Item under review: Cn1ccc(-c2cc(C(=O)OCC(F)(F)F)ccn2)n1 . Reported IC50?
[A] > 100 µM

---

Parameter IC50: see the listing below.
- experimental_system: Bifunctional arginine demethylase and lysyl-hydroxylase JMJD6 (Homo sapiens, UniProt Q6NYC1)
- experiment_description: Inhibition of JMJD6 (unknown origin) by Succinate-Glo assay
Answer with a number only, understood to be in nM.

Reference set, count: 3
1) CC(C)OC(=O)c1ccnc(-c2ccn(C)n2)c1 = 1940
2) Cn1ccc(-c2cc(C(=O)OCc3ccccc3)ccn2)n1 = 5690
3) COC(=O)c1ccnc(-c2ccn(C)n2)c1 = 1860

// below: IC50 requested for another compound
[Q] Item under review: CCOC(=O)c1ccnc(-c2ccn(C)n2)c1 . Reported IC50?
[A] 914

---

- experimental_system: Lysine-specific demethylase 4D (Homo sapiens)
- Sequence (Q6B0I6 whole entry): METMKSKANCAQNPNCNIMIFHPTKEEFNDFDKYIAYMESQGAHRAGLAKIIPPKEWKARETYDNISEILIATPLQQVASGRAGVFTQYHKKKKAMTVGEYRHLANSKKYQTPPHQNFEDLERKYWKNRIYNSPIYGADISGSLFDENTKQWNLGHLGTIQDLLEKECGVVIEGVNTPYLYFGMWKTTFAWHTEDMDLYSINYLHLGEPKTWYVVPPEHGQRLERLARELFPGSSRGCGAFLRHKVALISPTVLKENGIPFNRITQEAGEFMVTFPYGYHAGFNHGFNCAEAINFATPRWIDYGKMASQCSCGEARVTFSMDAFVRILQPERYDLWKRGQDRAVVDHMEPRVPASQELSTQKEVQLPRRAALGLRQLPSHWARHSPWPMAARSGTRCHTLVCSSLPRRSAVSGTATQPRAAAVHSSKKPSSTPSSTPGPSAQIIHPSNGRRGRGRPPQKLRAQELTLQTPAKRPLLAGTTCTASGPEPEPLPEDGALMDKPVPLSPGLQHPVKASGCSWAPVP
pIC50: −log10 of the molar value.
measured_attribute: pIC50

[Q] Item under review: Cn1ccc(-c2cc(C(=O)OCC(F)(F)F)ccn2)n1 . Reported pIC50?
[A] < 4.00

---

- experimental_system: Lysine-specific demethylase 3B (Homo sapiens)
- Sequence (Q7LBC6 whole entry): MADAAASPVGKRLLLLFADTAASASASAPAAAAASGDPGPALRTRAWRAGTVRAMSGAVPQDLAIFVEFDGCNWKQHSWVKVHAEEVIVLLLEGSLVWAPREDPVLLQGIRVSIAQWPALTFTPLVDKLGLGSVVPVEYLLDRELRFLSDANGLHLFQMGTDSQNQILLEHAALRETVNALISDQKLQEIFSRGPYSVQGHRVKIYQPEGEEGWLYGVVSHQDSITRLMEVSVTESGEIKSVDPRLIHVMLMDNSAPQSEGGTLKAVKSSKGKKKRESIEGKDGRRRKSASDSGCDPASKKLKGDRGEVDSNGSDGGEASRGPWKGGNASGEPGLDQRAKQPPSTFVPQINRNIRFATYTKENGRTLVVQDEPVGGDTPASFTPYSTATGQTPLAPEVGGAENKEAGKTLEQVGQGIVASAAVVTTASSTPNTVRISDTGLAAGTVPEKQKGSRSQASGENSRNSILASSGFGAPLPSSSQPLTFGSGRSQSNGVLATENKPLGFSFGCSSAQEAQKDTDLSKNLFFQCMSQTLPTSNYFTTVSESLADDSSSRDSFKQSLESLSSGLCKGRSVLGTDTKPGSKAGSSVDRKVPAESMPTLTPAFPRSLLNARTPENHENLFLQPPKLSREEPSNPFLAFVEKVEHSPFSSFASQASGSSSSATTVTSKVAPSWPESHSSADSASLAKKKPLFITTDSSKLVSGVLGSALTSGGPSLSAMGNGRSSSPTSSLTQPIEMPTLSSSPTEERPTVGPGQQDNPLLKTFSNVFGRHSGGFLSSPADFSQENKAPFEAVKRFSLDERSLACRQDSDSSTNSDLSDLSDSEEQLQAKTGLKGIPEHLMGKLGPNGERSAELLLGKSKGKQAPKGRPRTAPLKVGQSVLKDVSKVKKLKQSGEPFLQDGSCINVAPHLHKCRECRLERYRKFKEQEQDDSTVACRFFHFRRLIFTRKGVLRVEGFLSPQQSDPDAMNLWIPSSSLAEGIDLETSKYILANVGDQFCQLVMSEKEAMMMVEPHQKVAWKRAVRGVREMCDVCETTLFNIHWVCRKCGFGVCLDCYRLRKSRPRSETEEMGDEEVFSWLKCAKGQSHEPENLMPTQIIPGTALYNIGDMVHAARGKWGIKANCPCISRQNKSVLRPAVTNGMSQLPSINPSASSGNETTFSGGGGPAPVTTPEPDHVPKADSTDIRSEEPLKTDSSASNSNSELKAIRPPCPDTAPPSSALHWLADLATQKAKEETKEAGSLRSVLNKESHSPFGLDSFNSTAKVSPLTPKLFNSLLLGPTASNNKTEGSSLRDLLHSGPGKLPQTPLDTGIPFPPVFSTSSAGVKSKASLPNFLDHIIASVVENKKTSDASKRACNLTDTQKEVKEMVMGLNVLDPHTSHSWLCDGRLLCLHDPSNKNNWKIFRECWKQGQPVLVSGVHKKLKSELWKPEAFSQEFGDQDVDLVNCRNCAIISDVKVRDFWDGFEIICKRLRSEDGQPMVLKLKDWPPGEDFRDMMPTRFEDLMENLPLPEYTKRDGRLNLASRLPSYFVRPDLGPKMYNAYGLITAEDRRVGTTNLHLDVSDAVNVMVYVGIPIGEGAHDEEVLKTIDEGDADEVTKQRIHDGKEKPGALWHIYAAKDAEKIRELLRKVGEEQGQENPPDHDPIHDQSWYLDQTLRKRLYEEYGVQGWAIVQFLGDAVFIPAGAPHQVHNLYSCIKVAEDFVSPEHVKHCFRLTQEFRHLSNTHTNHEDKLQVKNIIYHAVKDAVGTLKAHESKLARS
measured_attribute: IC50

[Q] Please state recorded IC50 (tested on Lysine-specific demethylase 3B (Homo sapiens)) of Cn1ccc(-c2cc(C(=O)OCC(F)(F)F)ccn2)n1
[A] > 100 µM

---

- experimental_system: Bifunctional arginine demethylase and lysyl-hydroxylase JMJD6 (Homo sapiens, UniProt Q6NYC1)
- experiment_description: Inhibition of JMJD6 (unknown origin) by Succinate-Glo assay
measured_attribute: IC50 (µM)
Answer with a number only, understood to be in µM.

1. CCOC(=O)c1ccnc(-c2ccn(CC)n2)c1 = 2.43
2. CCOC(=O)c1ccnc(-c2nn(C)cc2-c2cccc(C)c2)c1 = 22.9
3. CCOC(=O)c1ccnc(-c2cc[nH]n2)c1 = 19.9
4. Cn1ccc(-c2cc(C(=O)O)ccn2)n1 = 1.71
5. CCCOC(=O)c1ccnc(-c2ccn(C)n2)c1 = 1.34

// below: IC50 requested for another molecule
[Q] Item under review: CCOC(=O)c1ccnc(-c2nn(C)cc2-c2ccc(OC)nc2)c1 . Reported IC50?
[A] 24.9

---

- experimental_system: Bifunctional arginine demethylase and lysyl-hydroxylase JMJD6 (Homo sapiens, UniProt Q6NYC1)
- experiment_description: Inhibition of JMJD6 (unknown origin) by Succinate-Glo assay
pIC50: −log10 of the molar value.
measured_attribute: pIC50

Reference set, count: 2
1) CCNC(=O)c1ccnc(-c2ccn(C)n2)c1 = < 4.00
2) CCOC(=O)c1ccnc(-c2ccnn2C)c1 = < 4.00

// below: pIC50 requested for another molecule
[Q] Item under review: CCOC(=O)c1ccnc(-c2nn(C)cc2-c2cc3ccccc3c3ccccc23)c1 . Reported pIC50?
[A] < 4.00
